Molecular target: T1, his-tagged B7-H3 (UniProt Q5ZPR3-2 29-245, limits assumed)
T1 construct: also called CD276; not shown: His tag
T1 sequence (looked up): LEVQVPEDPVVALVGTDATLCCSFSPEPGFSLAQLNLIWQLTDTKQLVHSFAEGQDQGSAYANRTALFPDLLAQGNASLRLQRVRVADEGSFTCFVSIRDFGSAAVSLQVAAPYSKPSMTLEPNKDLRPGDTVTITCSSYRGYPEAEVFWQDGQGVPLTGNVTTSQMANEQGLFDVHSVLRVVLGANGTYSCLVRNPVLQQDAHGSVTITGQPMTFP
Test: SPR, Carterra LSA; binder captured by anti-human Fc, his-tagged B7-H3 injected
In this section, each of the binders is paired with its reported kon.
Expressed in M⁻¹ s⁻¹, but write only the number.

Example results:
binder	kon (M⁻¹ s⁻¹)
40511p1.2.A4 scFv-Fc (scFv, V domains shown, Tested as scFv-Fc supernatant) VH: DVQLVESGGGVVRPGESLRLSCAASGFTFSSYAESWVRQAPGEGLEWVSIISGSGGNTFYADSVKGRFTISRDNSKNTLYLQMNSLRAEDTAVYYCARFAYGFFDYWGLGTLVTVSS VL: EIVLTQSPGTLSVSPGERATLSCRASQTVGSKLAWYQQKPGQAPRLLIYDASTRATDIPDRFSGSGSGTDFTLTISSLQSEDFAVYYCQQYRNWPPLTFGGGTKVEIK	768000
40633p1.1.B12 scFv-Fc (scFv, V domains shown) VH: EVQLLESGGGLLQPGGSLRLSCAASGFSFSSYGMHWVRQAPGKGLEWVAAINSDGSRIYYADSVKGRFTISRDNSKNTLYLQMNSLRAEDTAVYYCTKYYYHYAMDVWGQGTTVTVSS VL: QSVLTQPPSASGTPGQRVTISCSGSRSDIGATTVNWYQQLPGTAPKLLTYQSHLRPSGVPDRFSGSKSGTSASLAISGLQSEDEADYYCASWDASLNTWVFGGGTKLTVL	349000

// kon lookup, key: 40633p1.1.A7 scFv-Fc (scFv, V domains shown, Tested as scFv-Fc supernatant) VH: EVQLLESGGGLVQPGGSLRLSCAASGFTVSYYGMSWVRQAPGKGLEWVSAIKQDGSEKYYADSVKGRFTISRDNSKNTLYLQMNSLRAEDTAVYYCARHWNDYSNAMNVWGQGTTVTVSS VL: QSVLTQPPSASGTPGQRVTISCSGSTSNIGRESVYWYQQLPGTAPKLLIYTIDQRPSGVPDRFSGSKSGTSASLAISGLQSEDEAVYYCASWDASLNGWVFGGGTKLTVL
371000

Where these numbers come from: patent US20260008852A1
